System: Calu-3
Test: relative viability EC50 (midpoint between 100% and the lowest measured viability); higher = less toxic
Settings: 72 h
Listing of entries alongside the reported relative viability EC50.
measured.quantity: relative viability EC50

- compound: "CC(C)=CCC/C(C)=C/CC/C(C)=C/CSc1ccccc1C(=O)O [salirasib]"
  measured.quantity: "relative viability EC50"
  result: "> 10 µM"
- compound: "CC(CNC1CCCCC1)OC(=O)c1ccccc1 (configuration not stated) [hexylcaine]"
  measured.quantity: "relative viability EC50"
  result: "> 10 µM"
- compound: "N=C(N)NCCC[C@H](NC(=O)c1sccc1NS(=O)(=O)c1cccc2nsnc12)C(=O)O"
  measured.quantity: "relative viability EC50"
  result: "> 10 µM"
- compound: "N#C/C(=C\\c1ccc(O)c(O)c1)C(=O)NCCCc1ccccc1 [AG-555]"
  measured.quantity: "relative viability EC50"
  result: "> 10 µM"
- compound: "CN(C)C/C=C/C(=O)Nc1ccc(C(=O)Nc2cccc(Nc3ncc(Cl)c(-c4c[nH]c5ccccc45)n3)c2)cc1 [THZ1]"
  measured.quantity: "relative viability EC50"
  result: "0.107 µM"
- compound: "CC(C)(C)c1ccc2cc(C#N)c(C#N)cc2c1 [BRD9876]"
  measured.quantity: "relative viability EC50"
  result: "> 10 µM"
- compound: "O=P(O)(O)C(O)(Cc1cccnc1)P(=O)(O)O [risedronate]"
  measured.quantity: "relative viability EC50"
  result: "> 10 µM"
- compound: "Cc1ccc(NCCCc2ccccc2)c(N)c1 [NFKB-activation-inhibitor-II]"
  measured.quantity: "relative viability EC50"
  result: "> 10 µM"
- compound: "COc1cccc2c1C(=O)c1c(O)c3c(c(O)c1C2=O)C[C@@](O)(C(C)=O)C[C@@H]3O[C@H]1C[C@H](N)[C@H](O)[C@H](C)O1 [daunorubicin]"
  measured.quantity: "relative viability EC50"
  result: "0.177 µM"
- compound: "COc1ccc(C2=N[C@@H](c3ccc(Cl)cc3)[C@@H](c3ccc(Cl)cc3)N2C(=O)N2CCNC(=O)C2)c(OC(C)C)c1 [nutlin-3]"
  measured.quantity: "relative viability EC50"
  result: "> 10 µM"
- compound: "CCCCCCCCCCCCCCCCCC(=O)OC[C@@H](O)[C@H]1OC[C@H](O)[C@H]1O [sorbitan-monostearate]"
  measured.quantity: "relative viability EC50"
  result: "> 10 µM"
- compound: "CC(=O)Nc1ccc(OC(C)=O)cc1 [diacetamate]"
  measured.quantity: "relative viability EC50"
  result: "> 10 µM"
